Item-by-item account of protein stability index
B1: CPXM2 (parent)
chain: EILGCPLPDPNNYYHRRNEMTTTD

variants of: B1; assay: protein stability index of a GFP-peptide fusion (GPS, HEK-293T) (PSI 1-6); higher = more stable; details: c terminus: a fixed tail appended;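 also: lentivirally expressed fusions sorted by FACS into six bins by GFP to DsRed ratio, PSI derived from sequencing read proportions per bin multiplied by bin number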
I only need the number, thanks.

>  <ordered_residues>
EILGCPLPDPMNYYHRRNEMTTTD [N11M]

>  <value>
3.21

$$$$
>  <ordered_residues>
EILGCPYPDPNNYYHRRNEMTTTD [L7Y]

>  <value>
3.61

$$$$
>  <ordered_residues>
EVLGCPLPDPNNYYHRRNEMTTTD [I2V]

>  <value>
3.79

$$$$

Input: Dear colleague, I am looking for the recorded protein stability index of the following variant: EILGCDLPDPNNYYHRRNEMTTTD [P6D]
Output: 3.95
